# TARGET SYSTEM: Mitogen-activated protein kinase 8 (Homo sapiens)
# Sequence (P45983 whole entry): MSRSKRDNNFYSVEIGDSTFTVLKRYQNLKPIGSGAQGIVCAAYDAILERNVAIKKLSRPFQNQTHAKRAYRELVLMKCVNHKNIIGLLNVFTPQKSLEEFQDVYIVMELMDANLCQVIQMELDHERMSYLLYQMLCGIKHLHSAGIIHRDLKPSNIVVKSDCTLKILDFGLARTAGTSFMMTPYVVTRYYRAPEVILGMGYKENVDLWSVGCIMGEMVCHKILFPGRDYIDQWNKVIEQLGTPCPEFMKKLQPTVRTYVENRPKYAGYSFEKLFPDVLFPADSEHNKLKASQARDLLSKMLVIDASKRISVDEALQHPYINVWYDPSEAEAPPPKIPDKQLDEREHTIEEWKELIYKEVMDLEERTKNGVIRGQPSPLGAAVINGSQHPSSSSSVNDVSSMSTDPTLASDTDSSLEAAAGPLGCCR
# METHOD NOTES: Inhibition of JNK1 (unknown origin) by Kinome scan method
REPORTED METRIC: IC50
The reply must contain the numeric value and, after it, the unit.

Q: I am curious: what IC50 value has been reported for Cc1cc2nc(-c3ccccc3)cc(N3CCC(N(C)C)C3)n2n1 (stereo unspecified) ?
Ans: 20 µM

====

# TARGET SYSTEM: Mitogen-activated protein kinase 10 (Homo sapiens, UniProt P53779)
# Sequence (P53779 whole entry): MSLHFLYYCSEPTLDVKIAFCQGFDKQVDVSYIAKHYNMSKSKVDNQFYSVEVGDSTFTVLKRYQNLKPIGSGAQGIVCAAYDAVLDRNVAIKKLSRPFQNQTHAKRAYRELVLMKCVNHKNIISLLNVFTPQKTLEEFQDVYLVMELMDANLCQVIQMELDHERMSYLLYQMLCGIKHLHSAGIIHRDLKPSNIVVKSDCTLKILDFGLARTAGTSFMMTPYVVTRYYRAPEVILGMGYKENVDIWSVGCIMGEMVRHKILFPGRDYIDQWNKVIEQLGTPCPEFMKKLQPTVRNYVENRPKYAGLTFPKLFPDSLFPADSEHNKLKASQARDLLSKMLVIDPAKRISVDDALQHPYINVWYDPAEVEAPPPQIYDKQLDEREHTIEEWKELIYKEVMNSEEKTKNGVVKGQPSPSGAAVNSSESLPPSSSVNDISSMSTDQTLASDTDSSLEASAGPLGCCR
# METHOD NOTES: Inhibition of JNK3 (unknown origin) by Kinome scan method
REPORTED METRIC: pIC50
Numbers only, as −log10 of the molar value.

Q: I am curious: what pIC50 value has been reported for Cc1cc2nc(-c3ccccc3)cc(N3CCC(N(C)C)C3)n2n1 (stereo unspecified) ?
Ans: 4.70

====

# TARGET SYSTEM: Kappa-type opioid receptor (Homo sapiens, UniProt P41145)
# Sequence (P41145 whole entry): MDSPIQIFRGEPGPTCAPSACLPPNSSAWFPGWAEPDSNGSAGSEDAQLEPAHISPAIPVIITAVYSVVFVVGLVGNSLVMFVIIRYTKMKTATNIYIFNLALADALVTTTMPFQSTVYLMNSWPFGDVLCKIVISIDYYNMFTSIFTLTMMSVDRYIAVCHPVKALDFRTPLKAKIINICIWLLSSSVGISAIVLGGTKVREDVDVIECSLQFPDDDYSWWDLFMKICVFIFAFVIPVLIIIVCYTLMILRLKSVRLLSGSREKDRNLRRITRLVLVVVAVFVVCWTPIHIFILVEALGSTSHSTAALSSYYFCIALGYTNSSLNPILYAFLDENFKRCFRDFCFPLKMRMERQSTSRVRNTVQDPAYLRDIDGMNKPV
# METHOD NOTES: Displacement of [3H]-Diprenorphine from KOR (unknown origin)
REPORTED METRIC: pEC50
Answers are plain numbers, as −log10 of the molar value.

Q: I am curious: what pEC50 value has been reported for CN1CCC2(c3cccc(O)c3)Cc3nc4ccccc4cc3CC2C1 (racemic) ?
Ans: 4.05

====

# TARGET SYSTEM: Mas-related G-protein coupled receptor member X2 (Homo sapiens, UniProt Q96LB1)
# Sequence (Q96LB1 whole entry): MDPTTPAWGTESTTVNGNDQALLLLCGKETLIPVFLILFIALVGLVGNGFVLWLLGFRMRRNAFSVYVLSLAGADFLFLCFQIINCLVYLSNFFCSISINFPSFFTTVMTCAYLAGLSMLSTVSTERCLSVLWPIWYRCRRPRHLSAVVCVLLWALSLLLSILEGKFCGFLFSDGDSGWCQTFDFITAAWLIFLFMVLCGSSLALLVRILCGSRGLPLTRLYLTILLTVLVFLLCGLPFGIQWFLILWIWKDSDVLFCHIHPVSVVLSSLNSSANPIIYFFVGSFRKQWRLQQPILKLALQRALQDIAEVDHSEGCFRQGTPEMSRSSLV
# METHOD NOTES: Agonist activity at N-terminal Flag-tagged human MRGPRX2 receptor expressed in tetracycline-induced FLP-IN/T-REX 293 cells assessed as increase in intracellular calcium release by FLIPR assay
# Assay type: functional, cell-based
# ASSAY CONDITIONS: read-out: EC50
Assignment: determine reported pEC50 for the given compounds.
Answers are plain numbers, as −log10 of the molar value.

C[C@@H]1C[C@H]2Cc3ncc(-c4ccc5c(n4)C[C@@H]4C[C@@H](C)C[C@]56NCCC[C@H]46)cc3[C@]3(C1)NCCC[C@H]23 [COMPLANADINE A] = 4.74
CN1CC[C@]23c4c5ccc(O)c4O[C@H]2[C@@H](O)C=C[C@H]3[C@H]1C5 [MORPHINE] = 5.15
CN1CCC2(c3cccc(O)c3)Cc3nc4ccccc4cc3CC2C1 (racemic) = 6.13

Q: I am curious: what pEC50 value has been reported for CN1CC[C@@]23CCCC[C@@H]2[C@@H]1Cc1ccc(O)cc13 [DEXTRORPHAN] ?
Ans: 5.22

====

# TARGET SYSTEM: Delta-type opioid receptor (Homo sapiens, UniProt P41143)
# Sequence (P41143 whole entry): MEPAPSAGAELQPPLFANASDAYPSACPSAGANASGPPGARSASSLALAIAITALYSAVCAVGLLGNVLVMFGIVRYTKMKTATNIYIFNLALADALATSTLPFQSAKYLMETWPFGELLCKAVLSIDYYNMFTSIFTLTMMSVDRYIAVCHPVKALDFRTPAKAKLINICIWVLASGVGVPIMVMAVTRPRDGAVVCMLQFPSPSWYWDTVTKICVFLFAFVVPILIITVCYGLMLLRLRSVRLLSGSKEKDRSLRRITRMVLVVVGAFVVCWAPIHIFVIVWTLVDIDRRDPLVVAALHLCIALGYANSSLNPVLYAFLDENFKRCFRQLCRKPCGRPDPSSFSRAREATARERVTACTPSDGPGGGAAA
# METHOD NOTES: Displacement of [3H]-Naltrindole from DOR (unknown origin)
REPORTED METRIC: pKi
Give bare numbers, as −log10 of the molar value.

Q: I am curious: what pKi value has been reported for CN1CCC2(c3cccc(O)c3)Cc3nc4ccccc4cc3CC2C1 (racemic) ?
Ans: 8.53

====

# TARGET SYSTEM: UniProtKB Q96LB1
# METHOD NOTES: Agonist activity at N-terminal Flag-tagged human MRGPRX2 receptor expressed in tetracycline-induced FLP-IN/T-REX 293 cells assessed as increase in intracellular calcium release by FLIPR assay
# Assay type: functional, cell-based
# ASSAY CONDITIONS: read-out: pEC50 (converted)
Where a SMILES comes first, the peptide text is derived from it.
Assignment: determine reported EC50 for the given molecules.
Give bare numbers, in nM.

In the examples that follow, each entry is paired with its recorded EC50.
C[C@@H](O)[C@@H]1NC(=O)[C@H](CCCCN)NC(=O)[C@H](Cc2c[nH]c3ccccc23)NC(=O)[C@H](Cc2ccccc2)NC(=O)[C@H](Cc2ccccc2)NC(=O)[C@H](CC(N)=O)NC(=O)[C@H](CCCCN)NC(=O)[C@@H](NC(=O)[C@@H]2CCCN2)CSSC[C@@H](C(=O)N[C@@H](CCCCN)C(=O)O)NC(=O)[C@H](CO)NC(=O)[C@H](CO)NC(=O)[C@H](Cc2ccccc2)NC1=O (HELM PEPTIDE1{P.C.K.N.F.F.W.K.T.F.S.S.C.K}$PEPTIDE1,PEPTIDE1,2:R3-13:R3$$$V2.0) = 417
COC1=CC2CN(C)CCC2C=C1 (stereo not given) = 1620
CN1CC[C@@]23CCCC[C@@H]2[C@@H]1Cc1ccc(O)cc13 = 3890
CC[C@H](C)[C@H](N)C(=O)N[C@@H](CC(N)=O)C(=O)N[C@@H](CC(C)C)C(=O)N[C@@H](CCCCN)C(=O)N[C@@H](C)C(=O)N[C@@H](CC(C)C)C(=O)N[C@@H](C)C(=O)N[C@@H](C)C(=O)N[C@@H](CC(C)C)C(=O)N[C@@H](C)C(=O)N[C@@H](CCCCN)C(=O)N[C@@H](CCCCN)C(=O)N[C@H](C(=O)N[C@@H](CC(C)C)C(N)=O)[C@@H](C)CC = 11700

We now examine a further molecule.
Q: I am curious: what EC50 value has been reported for CN1CCC2(c3cccc(O)c3)Cc3nc4ccccc4cc3CC2C1 (racemic) ?
Ans: 646

====

# TARGET SYSTEM: Mas-related G-protein coupled receptor member X2 (Homo sapiens, UniProt Q96LB1)
# Sequence (Q96LB1 whole entry): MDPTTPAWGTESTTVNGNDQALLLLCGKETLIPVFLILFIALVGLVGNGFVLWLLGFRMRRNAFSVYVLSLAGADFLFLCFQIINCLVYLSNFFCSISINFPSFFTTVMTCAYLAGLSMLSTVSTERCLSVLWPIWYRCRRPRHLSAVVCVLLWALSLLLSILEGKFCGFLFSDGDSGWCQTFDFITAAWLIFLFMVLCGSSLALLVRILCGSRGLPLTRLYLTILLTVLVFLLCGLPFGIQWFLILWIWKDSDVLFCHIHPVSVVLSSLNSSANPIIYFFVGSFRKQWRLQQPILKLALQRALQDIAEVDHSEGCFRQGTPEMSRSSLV
# METHOD NOTES: Agonist activity at N-terminal Flag-tagged human MRGPRX2 receptor expressed in tetracycline-induced FLP-IN/T-REX 293 cells assessed as increase in intracellular calcium release by FLIPR assay
# Assay type: functional, cell-based
# ASSAY CONDITIONS: read-out: EC50
Assignment: determine reported pEC50 for the given compounds.
Answers are plain numbers, as −log10 of the molar value.

CN(C)[C@@H]1CCN(c2cc(-c3ccccc3)nc3ccnn23)C1 [(R)-ZINC-3573] = 6.00

We now examine a further compound.
Q: I am curious: what pEC50 value has been reported for `CC[C@H](C)[C@H](NC(=O)[C@H](CCCNC(=N)N)NC(=O)[C@H](CCCNC(=N)N)NC(=O)[C@H](CC(C)C)NC(=O)[C@H](Cc1ccccc1)NC(=O)CNC(=O)CNC(=O)[C@@H](N)Cc1ccc(O)cc1)C(=O)N[C@@H](CCCNC(=N)N)C(=O)N1CCC[C@H]1C(=O)N[C@@H](CCCCN)C(=O)N[C@@H](CC(C)C)C(=O)N[C@@H](CCCCN)C(=O)O` ?
Ans: 5.96

====

# TARGET SYSTEM: Mas-related G-protein coupled receptor member X2 (Homo sapiens)
# Sequence (whole entry): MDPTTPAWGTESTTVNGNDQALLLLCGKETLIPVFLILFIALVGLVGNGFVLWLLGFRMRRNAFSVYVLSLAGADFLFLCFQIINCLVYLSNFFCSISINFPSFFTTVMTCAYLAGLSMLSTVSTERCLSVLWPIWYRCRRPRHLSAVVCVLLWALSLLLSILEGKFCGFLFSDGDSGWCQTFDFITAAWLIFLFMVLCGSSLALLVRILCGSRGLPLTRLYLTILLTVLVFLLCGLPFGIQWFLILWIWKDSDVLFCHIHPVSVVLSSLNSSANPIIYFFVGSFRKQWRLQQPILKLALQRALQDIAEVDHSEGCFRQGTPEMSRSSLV
# METHOD NOTES: Agonist activity at MRGPRX2 receptor in human LAD2 cells assessed as increase in degranulation incubated for 30 mins by beta-hexosaminidase assay
# Type: functional, cell-based
# ASSAY CONDITIONS: filed as agonist
The source made the active and inactive calls. The calls are words filed in the database; no cut-off is given here.
REPORTED METRIC: Activity

CN1CC[C@]23c4c5ccc(O)c4O[C@H]2[C@@H](O)C=C[C@H]3[C@H]1C5 = Active
CN(C)[C@@H]1CCN(c2cc(-c3ccccc3)nc3ccnn23)C1 [(R)-ZINC-3573] = Active
CC[C@H](C)[C@H](NC(=O)[C@H](CCCNC(=N)N)NC(=O)[C@H](CCCNC(=N)N)NC(=O)[C@H](CC(C)C)NC(=O)[C@H](Cc1ccccc1)NC(=O)CNC(=O)CNC(=O)[C@@H](N)Cc1ccc(O)cc1)C(=O)N[C@@H](CCCNC(=N)N)C(=O)N1CCC[C@H]1C(=O)N[C@@H](CCCCN)C(=O)N[C@@H](CC(C)C)C(=O)N[C@@H](CCCCN)C(=O)O = Active
CN1CCC2(c3cccc(O)c3)Cc3nc4ccccc4cc3CC2C1 (racemic) = Active
